Value source: ChEMBL document CHEMBL1157539

- Tested on: HepG2
- TEST_NAME: GSK_TCMDC: Percent inhibition of human HepG2 cell line. Test compounds present at 10uM.
- Format: functional
Below, each entry is listed alongside its reported Inhibition.
QUANTITY_MEASURED: Inhibition (%)

>>> df
                                   molecule  system  measurement
0  Cl.OC(CN1CCN(c2cccc(Cl)c2)CC1)C(c1ccccc1)c1ccccc1 (stereo not given)   HepG2            0
1  O=C(Cc1c[nH]cn1)Nc1cccc(-c2cccc(-c3nc4cc(F)ccc4[nH]3)c2)c1   HepG2           21
2  CC(CN(C)C)C(=O)Nc1cccc(-c2ccc(-c3nc4ccccc4[nH]3)s2)c1 (stereo not given)   HepG2           13
3  CC(=O)Nc1ccc(C2NC(=O)NC(c3ccccc3)=C2c2nc3ccccc3s2)cc1 (stereo not given)   HepG2            0
4     COc1cccc(OC)c1OCCCOc1c(C)nc(N)nc1N.Cl   HepG2           31
